Assay: Human HepG2 cell viability assay in 384 well format
Format: toxicity, cell-based
Parameters: dose 125 nL, time 70.5 hour; concentration not given beside the values
Settings: HepG2 cells, read-out: Inhibition
Measure Name: cytotoxicity at 70.5 h (%)
Numeric only. Scale: %

Some entries whose results are on file:
| Compound | Measure Name | Readout Number |
| --- | --- | --- |
| N#Cc1cccc(CN2CCCC2c2ccc[nH]2)c1 (configuration not stated) | cytotoxicity at 70.5 h | 15.2 |
| Cc1nc(C2CCNC2)nc2c1CCC(=O)N2CC(C)C (configuration not stated) | cytotoxicity at 70.5 h | -3.62 |
| COc1ccc(NC(=O)Cc2c(C)nn(C)c2C)cc1F | cytotoxicity at 70.5 h | 7.37 |
| O=C(c1ncoc1-c1ccco1)N1CCCN(c2nccs2)CC1 | cytotoxicity at 70.5 h | -2.69 |
| COc1ccccc1CC(=O)N1CCC(NCc2c[nH]nc2C)CC1 | cytotoxicity at 70.5 h | 2.03 |
| c1ccc(CN2CCc3ncnc(-c4cncnc4)c3CC2)nc1 | cytotoxicity at 70.5 h | 21.8 |
| O=C(NC1CCN(c2ncccn2)CC1)c1cccc(-n2ccnc2)c1 | cytotoxicity at 70.5 h | -7.96 |
| COC[C@@]12CCC[C@@H]1CN(C(=O)COC1CCCC1)C2 | cytotoxicity at 70.5 h | -6.5 |
| CN(C(=O)c1cccc(NCc2cccs2)c1)C(C1CC1)C1CC1 | cytotoxicity at 70.5 h | -11.2 |
| Cc1nccnc1N1Cc2cnn(Cc3ccc(F)cc3)c2C1 | cytotoxicity at 70.5 h | -0.0825 |

The compound identified as COc1ccccc1CN(CC1CCCO1)C(=O)c1cc(C)n[nH]1 (configuration not stated) registered its cytotoxicity at 70.5 h at -14.4

Data point: `CN(C)C(=O)CN1CCC(c2cccc(Cc3ccc(F)cc3)n2)CC1` ; cytotoxicity at 70.5 h = 15.8

###

Test: Human HepG2 cell viability assay in 384 well format
Type: toxicity, cell-based
Parameters: dose 125 nL, time 70.5 hour; concentration not given beside the values
Conditions: HepG2 cells, read-out: Inhibition
Measure Name: cytotoxicity at 70.5 h (%)
Please give a number only; it is taken to be in %.

Below, 8 compounds whose answers are already recorded.
| Compound | Measure Name | Readout Number |
| --- | --- | --- |
| CC(C)(C)c1nc(CNC2CCCN(c3cccnn3)C2)no1 (centres undefined) | cytotoxicity at 70.5 h | -0.0267 |
| CC(C)Oc1ncccc1CNC(=O)c1ccco1 | cytotoxicity at 70.5 h | 1.27 |
| CN(Cc1nccn1C)S(=O)(=O)c1cccc(C#N)c1 | cytotoxicity at 70.5 h | -1.58 |
| CCc1cnc(CN(C)C2CCN(CCc3cccs3)C2)o1 (centres undefined) | cytotoxicity at 70.5 h | -4.48 |
| CCS(=O)(=O)N1CCC2(CCC2NC(=O)c2ccn(C)c2)CC1 (centres undefined) | cytotoxicity at 70.5 h | -7.91 |
| Cc1ccsc1C(=O)N1CC[C@H]2CO[C@H](CN(C)C)[C@H]2C1 | cytotoxicity at 70.5 h | -6.98 |
| Cc1c(C(=O)NC(C)C(C)C)nnn1-c1cccc2c1CCN(C)C2 (centres undefined) | cytotoxicity at 70.5 h | 5.93 |
| Cc1cccc(OCCN2CCC(c3ccnn3CCO)CC2)c1 | cytotoxicity at 70.5 h | -7.3 |

Per the records, this compound ( O=C(c1cc[nH]n1)N1CCCC1c1cnccn1 (centres undefined) ) has cytotoxicity at 70.5 h equal to -10.5

The measured cytotoxicity at 70.5 h associated with O=C(C1CC(=O)N(c2n[nH]c3cc(Br)ccc23)C1)N1CCCC1 (centres undefined) reads -9.16

Consider `Cc1ccc(CCNc2ncc(C)c(-c3ccnn3C)n2)s1` . Its measured cytotoxicity at 70.5 h is -8.02

Value of measured cytotoxicity at 70.5 h for the entry COc1cccc(CC(=O)N2CCCC(c3nncn3C)C2)c1 (centres undefined) : -12.3

According to the records, this compound `CO[C@H]1CC[C@H]2[C@H]1OCCN2Cc1ccc(F)cc1` displays cytotoxicity at 70.5 h of 9.89
